Taken from patent US10494384B2.

target: 20S proteasome extracted from rat liver (PGPH) (Rattus norvegicus, UniProt P28073+Q9JHW0); construct: 20S proteasome extracted from rat liver; from tissue; host or cells: rat liver; assay: inhibition of 20S proteasome, PGPH activity (fluorescent peptide); assay type: biochemical; details: 2 μM; rat liver 20S proteasome, 37° C., 1 h; read-out: inhibition rates (%) PGPH
readout_kind: inhibition at 2 µM

CC(C)C[C@H](NC(=O)N[C@@H](Cc1ccccc1)C(=O)N[C@@H](CC(C)C)C(=O)Nc1cnccn1)B1OC(C)(C)C(C)(C)O1
53.4%
CC(C)C[C@H](NC(=O)[C@H](Cc1ccccc1)NC(=O)N[C@@H](Cc1ccccc1)C(=O)Nc1cnccn1)B(O)O
-24.7%
COc1ccc(CNC(=O)[C@H](Cc2ccccc2)NC(=O)N[C@@H](CC(C)C)B(O)O)cc1
87.9%

Would you kindly look at the next entry?
Problem: Please look up its inhibition at 2 µM: "CC(C)C[C@H](NC(=O)[C@H](Cc1ccccc1)NC(=O)NCc1ccccc1)B(O)O"
Result: 84.6%

====

target: 20S proteasome extracted from rat liver (T-L) (Rattus norvegicus, UniProt P40112+Q9JHW0); construct: 20S proteasome extracted from rat liver; from tissue; host or cells: rat liver; assay: inhibition of 20S proteasome, T-L activity (fluorescent peptide); type: biochemical; details: 0.2 μM; rat liver 20S proteasome, 37° C., 1 h; read-out: inhibition rates (%) T-L
inhibition at 0.2 µM overview
Your answer is read as %, so omit the unit and give the number.

Record excerpt, results attached:
CC(C)C[C@H](NC(=O)N[C@@H](Cc1ccccc1)C(=O)N[C@@H](CC(C)C)C(=O)Nc1cnccn1)B1OC(C)(C)C(C)(C)O1
-3.11
CC(C)C[C@H](NC(=O)[C@H](Cc1ccccc1)NC(=O)N[C@@H](Cc1ccccc1)C(=O)Nc1cnccn1)B(O)O
-0.926
COc1ccc(OC)c(CNC(=O)N[C@@H](Cc2ccccc2)C(=O)N[C@@H](CC(C)C)B(O)O)c1
4.99
CC(C)C[C@H](NC(=O)[C@H](Cc1ccccc1)NC(=O)Nc1cccc(OCc2ccccc2)c1)B(O)O
-2.89
CC(C)C[C@H](NC(=O)N[C@@H](Cc1ccccc1)C(=O)Nc1cccc(OCc2ccccc2)c1)B(O)O
6.92
CC(C)C[C@H](NC(=O)N[C@@H](Cc1ccccc1)C(=O)Nc1cccc(OCc2ccccc2)c1)B1OC2C[C@H]3C[C@H](C3(C)C)[C@@]2(C)O1 (some centres unmarked)
-5.23
COc1ccc(CNC(=O)[C@H](Cc2ccccc2)NC(=O)N[C@@H](CC(C)C)B(O)O)cc1
-6.55
CC(C)C[C@H](NC(=O)N[C@@H](Cc1ccccc1)C(=O)Nc1cnccn1)B(O)O
-3.92

Problem: Please look up its inhibition at 0.2 µM: "CC(C)C[C@H](NC(=O)CNC(=O)Nc1cc(Cl)ccc1Cl)B(O)O"
Result: -3.95

Problem: Please look up its inhibition at 0.2 µM: "CC(C)C[C@H](NC(=O)[C@H](Cc1ccccc1)NC(=O)Nc1cnccn1)B(O)O"
Result: -3.77

Problem: Please look up its inhibition at 0.2 µM: COc1ccc(OC)c(CNC(=O)N[C@@H](Cc2ccccc2)C(=O)N[C@@H](CC(C)C)B2OC3CC4CC(C4(C)C)[C@]3(C)O2)c1 (some centres unmarked)
Result: 18.2

Problem: Please look up its inhibition at 0.2 µM: "CC(C)C[C@H](NC(=O)N[C@@H](Cc1ccccc1)C(=O)N[C@@H](CC(C)C)C(=O)Nc1cnccn1)B(O)O"
Result: -7.93

Problem: Please look up its inhibition at 0.2 µM: "CC(C)C[C@H](NC(=O)[C@H](Cc1ccccc1)NC(=O)NCc1cccc(Cl)c1Cl)B(O)O"
Result: 35.6

Problem: Please look up its inhibition at 0.2 µM: "CC(C)C[C@H](NC(=O)N[C@H](Cc1ccccc1)C(=O)Nc1cnccn1)B(O)O"
Result: -12.3

Problem: Please look up its inhibition at 0.2 µM: "COc1ccc(CNC(=O)N[C@@H](Cc2ccccc2)C(=O)N[C@@H](CC(C)C)B(O)O)cc1"
Result: 5.72
